B1: Cold shock protein CspB, P41016 (parent)
chain: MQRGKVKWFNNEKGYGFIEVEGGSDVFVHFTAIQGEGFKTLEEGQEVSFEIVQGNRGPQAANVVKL

Variants of: B1
Details: Bacillus caldolyticus; pH 7; Thermal; CD; Na cacodylate/HCl 0.1 M; reversible: Yes; structure 1C9O; whole UniProt chain shown
MEASURE_NAME: change of melting temperature, mutant - wild type (higher = more stable) (°C)
Just the number in °C, nothing appended.

So for E50K , the logged change of melting temperature, mutant - wild type (higher = more stable) turned out to be -3.4

The reported change of melting temperature, mutant - wild type (higher = more stable) of the variant E21K was -1.5

Notebook: N55K , change of melting temperature, mutant - wild type (higher = more stable) read as 0.8

// change of melting temperature, mutant - wild type (higher = more stable) lookup, variant = E36K , result: -0.9
